- experiment: Selectivity index, ratio of IC50 for HEK293 cells to IC50 for human HT-29 cells
- Format: toxicity
- cond: HEK293 cells versus HT-29 cells, read-out: Ratio IC50
metric: selectivity ratio

Solved cases (6 shown):
{"compound": "COc1cccc(N2CCCCC2)c1", "selectivity ratio": 20}
{"compound": "COc1ccc(-c2ccccn2)cc1OC", "selectivity ratio": 3}
{"compound": "COc1ccc(-c2ccccn2)c(OC)c1", "selectivity ratio": "< 1"}
{"compound": "COc1ccc(N2CCCC2)cc1", "selectivity ratio": 3}
{"compound": "Oc1ccccc1-c1cncnc1", "selectivity ratio": "< 1"}
{"compound": "c1ccc(N2CCOCC2)cc1", "selectivity ratio": 3}

-- ask Reported selectivity ratio, compound c1ccc(N2CCCCC2)cc1 : ____
-- reply 5

-- ask Reported selectivity ratio, compound COc1ccc(-c2ncccn2)c(OC)c1 : ____
-- reply < 1

-- ask Reported selectivity ratio, compound Oc1ccccc1-c1ccccn1 : ____
-- reply 2

-- ask Reported selectivity ratio, compound Oc1ccccc1-c1cccnc1 : ____
-- reply 2

###

- experiment: Selectivity index, ratio of IC50 for HEK293 cells to IC50 for human MCF7 cells
- cond: HEK293 cells versus MCF7 cells
metric: selectivity ratio
API doc: respond with a numeric literal and nothing else, no unit.

Solved cases (8 shown):
{"molecule": "c1ccc(N2CCOCC2)cc1", "selectivity ratio": 5}
{"molecule": "COc1ccc(N2CCCCC2)cc1", "selectivity ratio": 2}
{"molecule": "C=CCc1ccc(O)c(-c2ccc(O)c(CC=C)c2)c1 [HONOKIOL]", "selectivity ratio": 2}
{"molecule": "COc1cccc(N2CCCC2)c1", "selectivity ratio": 3}
{"molecule": "COc1cccc(N2CCOCC2)c1", "selectivity ratio": 5}
{"molecule": "COc1cccc(N2CCCCC2)c1", "selectivity ratio": 3}
{"molecule": "Oc1ccccc1-c1ncccn1", "selectivity ratio": 14}
{"molecule": "c1ccc(N2CCCCC2)cc1", "selectivity ratio": 4}

Next molecule, selectivity ratio to be filled in.
-- ask Reported selectivity ratio, molecule COc1ccc(-c2cncnc2)cc1OC : ____
-- reply 2

###

Each entry below lists one item and its recorded selectivity ratio value.
- experiment: Selectivity index, ratio of IC50 for HEK293 cells to IC50 for human MCF7 cells
- cond: HEK293 cells versus MCF7 cells
API doc: respond with a numeric literal and nothing else, no unit.

{"smi": "Oc1ccccc1-c1cncnc1", "selectivity ratio": 2}

-- ask Reported selectivity ratio, molecule COc1ccc(N2CCOCC2)cc1 : ____
-- reply 7

-- ask Reported selectivity ratio, molecule Oc1ccccc1-c1cccnc1 : ____
-- reply 7

-- ask Reported selectivity ratio, molecule Oc1ccccc1-c1ccccn1 : ____
-- reply 57

-- ask Reported selectivity ratio, molecule COc1ccc(N2CCCC2)cc1 : ____
-- reply 5

###

- experiment: Selectivity index, ratio of IC50 for HEK293 cells to IC50 for human HT-29 cells
- Type: toxicity
- cond: HEK293 cells versus HT-29 cells, read-out: Ratio IC50
metric: selectivity ratio

-- ask Reported selectivity ratio, compound c1ccc(-c2cccnc2)cc1 : ____
-- reply < 1

-- ask Reported selectivity ratio, compound C=CCc1ccc(O)c(-c2ccc(O)c(CC=C)c2)c1 : ____
-- reply 2

-- ask Reported selectivity ratio, compound COc1cccc(N2CCOCC2)c1 : ____
-- reply 3

Source: ChEMBL document CHEMBL4368926
